# assayDetails: Phase 1 crossover study, plasma pharmacokinetics of bendamustine, M3 and M4 (Example 23)
# experimentalParameters: human, plasma, po, 110.2 mg
Where a name gives a salt, the structure may show the parent alone.
measuredAttribute: Cmax (ng/mL)

{"molecule": "Cn1c(CCCC(=O)O)nc2cc(N(CCCl)CCCl)ccc21 [bendamustine hydrochloride]", "measuredAttribute": "Cmax", "assayResult": 3170}

====

# assayDetails: Phase 1 crossover study, urine pharmacokinetics of bendamustine, M3 and M4 (Example 23)
# Assay type: in vivo, patients
# experimentalParameters: human, urine, po, 110.2 mg; Bendamustine HCl, 110.2 mg orally; Min-max
Counter-ions that a name gives are not always drawn.

{"compound": "Cn1c(CCCC(=O)O)nc2cc(N(CCCl)CCCl)ccc21 [bendamustine hydrochloride]", "CL renal": "3 to 33.3 mL/min"}

====

# assayDetails: Phase 1 crossover study, plasma pharmacokinetics of bendamustine, M3 and M4 (Example 23)
# experimentalParameters: human, plasma, iv, 100 mg
Structures can show the parent of a compound that is named as a salt.

{"molecule": "Cn1c(CCCC(=O)O)nc2cc(N(CCCl)CCCl)ccc21 [bendamustine hydrochloride]", "AUC(0-inf), ng·h/mL": 4790}

====

# assayDetails: Phase 1 crossover study, plasma pharmacokinetics of bendamustine, M3 and M4 (Example 23)
# experimentalParameters: human, plasma, iv, 100 mg, Mean VSS, intravenous administration
# Experimental: 14 patients who were suffering from multiple myeloma, B-cell type chronic lymphocytic leukemia or advanced indolent non-Hodgkin's lymphoma were enrolled and were treated with bendamustine. […] After oral and intravenous administration of bendamustine the concentration of bendamustine, as well as that of the active metabolites of bendamustine (M3 and M4), were determined in plasma and urine samples on day 1 and day 8. […]

{"smilesText": "Cn1c(CCCC(=O)O)nc2cc(N(CCCl)CCCl)ccc21", "unitsSymbol": "L", "Vd": 10.3}

====

# assayDetails: Phase 1 crossover study, plasma pharmacokinetics of bendamustine, M3 and M4 (Example 23)
# experimentalParameters: human, plasma, iv, 100 mg, Mean VZ, intravenous administration
# Protocol: 14 patients who were suffering from multiple myeloma, B-cell type chronic lymphocytic leukemia or advanced indolent non-Hodgkin's lymphoma were enrolled and were treated with bendamustine. […] After oral and intravenous administration of bendamustine the concentration of bendamustine, as well as that of the active metabolites of bendamustine (M3 and M4), were determined in plasma and urine samples on day 1 and day 8. […]

{"smilesText": "Cn1c(CCCC(=O)O)nc2cc(N(CCCl)CCCl)ccc21", "unitsSymbol": "L", "Vd": 14.7}

====

# assayDetails: Phase 1 crossover study, plasma pharmacokinetics of bendamustine, M3 and M4 (Example 23)
# experimentalParameters: human, plasma, po, 110.2 mg, tmax; Bendamustine HCl, 110.2 mg orally; Mean
Counter-ions that a name gives are not always drawn.

{"compound": "Cn1c(CCCC(=O)O)nc2cc(N(CCCl)CCCl)ccc21 [bendamustine hydrochloride]", "unitsSymbol": "min", "Tmax": 56.8}

====

# assayDetails: Phase 1 crossover study, plasma pharmacokinetics of bendamustine, M3 and M4 (Example 23)
# experimentalParameters: human, plasma, po, 110.2 mg, t1/2, plasma; Bendamustine HCl, 110.2 mg orally; Mean
Counter-ions that a name gives are not always drawn.
measuredAttribute: half-life

{"molecule": "Cn1c(CCCC(=O)O)nc2cc(N(CCCl)CCCl)ccc21 [bendamustine hydrochloride]", "assayResult": "27.7 min"}

====

# assayDetails: Phase 1 crossover study, plasma pharmacokinetics of bendamustine, M3 and M4 (Example 23)
# experimentalParameters: human, plasma, iv, 100 mg

{"smilesText": "Cn1c(CCCC(=O)O)nc2cc(N(CCCl)CCCl)ccc21", "clearance [mL/min]": 353}

====

# assayDetails: Phase 1 crossover study, plasma pharmacokinetics of bendamustine, M3 and M4 (Example 23)
# experimentalParameters: human, plasma, po, 110.2 mg, Mean t1/2, oral intake
measuredAttribute: half-life

{"smilesText": "Cn1c(CCCC(=O)O)nc2cc(N(CCCl)CCCl)ccc21", "assayResult": "~30 min"}

====

# assayDetails: Phase 1 crossover study, plasma pharmacokinetics of bendamustine, M3 and M4 (Example 23)
# experimentalParameters: human, plasma, po, 110.2 mg
Where a name gives a salt, the structure may show the parent alone.

{"compound": "Cn1c(CCCC(=O)O)nc2cc(N(CCCl)CCCl)ccc21 [bendamustine hydrochloride]", "unitsSymbol": "ng·h/mL", "AUC(0-inf)": 3900}

====

# assayDetails: Phase 1 crossover study, plasma pharmacokinetics of bendamustine, M3 and M4 (Example 23)
# experimentalParameters: human, plasma, iv, 100 mg, Mean t1/2, intravenous administration
measuredAttribute: half-life

{"smilesText": "Cn1c(CCCC(=O)O)nc2cc(N(CCCl)CCCl)ccc21", "assayResult": "~30 min"}

====

# assayDetails: Phase 1 crossover study, urine pharmacokinetics of bendamustine, M3 and M4 (Example 23)
# Format: in vivo, patients
# experimentalParameters: human, urine, po, 110.2 mg; Bendamustine HCl, 110.2 mg orally; Mean
Structures can show the parent of a compound that is named as a salt.
measuredAttribute: CL renal (mL/min)

{"compound": "Cn1c(CCCC(=O)O)nc2cc(N(CCCl)CCCl)ccc21 [bendamustine hydrochloride]", "measuredAttribute": "CL renal", "assayResult": 13.1}

====

# assayDetails: Phase 1 crossover study, urine pharmacokinetics of bendamustine, M3 and M4 (Example 23)
# Format: in vivo, patients
# experimentalParameters: human, urine, po, 110.2 mg; Bendamustine HCl, 110.2 mg orally; Median
Structures can show the parent of a compound that is named as a salt.

{"molecule": "Cn1c(CCCC(=O)O)nc2cc(N(CCCl)CCCl)ccc21 [bendamustine hydrochloride]", "CL renal [mL/min]": 13}

====

# assayDetails: Phase 1 crossover study, plasma pharmacokinetics of bendamustine, M3 and M4 (Example 23)
# experimentalParameters: human, plasma, iv, 100 mg, tmax; Bendamustine HCl, 100 mg intravenously; Mean
Where a name gives a salt, the structure may show the parent alone.

{"molecule": "Cn1c(CCCC(=O)O)nc2cc(N(CCCl)CCCl)ccc21 [bendamustine hydrochloride]", "Tmax": "31.4 min"}

====

# assayDetails: Phase 1 crossover study, plasma pharmacokinetics of bendamustine, M3 and M4 (Example 23)
# experimentalParameters: human, plasma, po, 110.2 mg, tmax, individual values, oral administration
measuredAttribute: Tmax

{"smilesText": "Cn1c(CCCC(=O)O)nc2cc(N(CCCl)CCCl)ccc21", "assayResult": "0.25 to 1.8 h"}

====

# assayDetails: Phase 1 crossover study, plasma pharmacokinetics of bendamustine, M3 and M4 (Example 23)
# experimentalParameters: human, plasma, iv, 100 mg, Vss, plasma; Bendamustine HCl, 100 mg intravenously; Mean
Where a name gives a salt, the structure may show the parent alone.
measuredAttribute: Vd (L)

{"compound": "Cn1c(CCCC(=O)O)nc2cc(N(CCCl)CCCl)ccc21 [bendamustine hydrochloride]", "assayResult": 10.3}
